Data credit: patent US8853203B2

- measured.target: human mGluR5a receptors (Homo sapiens (Human), UniProt P41594)
- Sequence (P41594 other isoform, or with tags, fused parts or gaps): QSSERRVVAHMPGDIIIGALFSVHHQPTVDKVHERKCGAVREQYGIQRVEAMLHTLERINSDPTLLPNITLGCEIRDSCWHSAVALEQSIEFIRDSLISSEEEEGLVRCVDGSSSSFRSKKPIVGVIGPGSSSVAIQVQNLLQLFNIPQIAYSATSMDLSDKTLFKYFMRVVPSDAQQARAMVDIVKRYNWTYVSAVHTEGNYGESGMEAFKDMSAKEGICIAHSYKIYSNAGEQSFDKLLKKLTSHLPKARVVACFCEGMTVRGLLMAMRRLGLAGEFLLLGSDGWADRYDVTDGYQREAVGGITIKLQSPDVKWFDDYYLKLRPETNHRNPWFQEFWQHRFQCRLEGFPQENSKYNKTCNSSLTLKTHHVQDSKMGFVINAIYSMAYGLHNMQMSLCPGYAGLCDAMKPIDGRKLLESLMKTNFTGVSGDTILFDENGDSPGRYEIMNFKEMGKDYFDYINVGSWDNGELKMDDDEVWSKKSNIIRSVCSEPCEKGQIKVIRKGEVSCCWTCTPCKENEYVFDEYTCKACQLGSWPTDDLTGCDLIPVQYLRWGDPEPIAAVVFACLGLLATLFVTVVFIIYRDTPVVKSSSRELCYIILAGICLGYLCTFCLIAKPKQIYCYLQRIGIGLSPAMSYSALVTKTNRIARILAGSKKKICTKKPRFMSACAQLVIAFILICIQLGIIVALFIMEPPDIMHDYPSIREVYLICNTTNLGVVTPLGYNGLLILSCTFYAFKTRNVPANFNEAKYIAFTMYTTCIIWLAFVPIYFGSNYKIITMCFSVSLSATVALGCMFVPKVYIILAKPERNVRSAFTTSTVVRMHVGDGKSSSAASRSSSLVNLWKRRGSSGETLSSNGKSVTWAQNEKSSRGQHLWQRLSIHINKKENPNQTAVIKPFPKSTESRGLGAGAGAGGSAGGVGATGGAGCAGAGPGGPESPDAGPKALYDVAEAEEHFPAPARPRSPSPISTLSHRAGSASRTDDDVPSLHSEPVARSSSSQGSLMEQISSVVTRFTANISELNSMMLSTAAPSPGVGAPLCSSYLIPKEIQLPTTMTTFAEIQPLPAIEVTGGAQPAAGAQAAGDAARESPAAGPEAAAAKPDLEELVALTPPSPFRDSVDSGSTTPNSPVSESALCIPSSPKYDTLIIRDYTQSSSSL
- assay.details: inhibition of glutamate-induced elevation of intracellular calcium in L(tk-) cells expressing human mGluR5a
- test.parameters: glutamate-induced intracellular calcium elevation, L(tk-) cells expressing human mGluR5a; read-out: mGluR5 IC50
attribute.measured: IC50 (nM)

1 = C=C(C)c1cccc2c1CCN1C(=O)CN=C(n3cnc([C@@H](C)OC)c3)C=C21
2 = Cn1ccc(C2=NCC(=O)N3CCc4c(C#N)cccc4C3=C2)n1
3 = O=C1CN=C(n2cnc(C3CC3)c2)C=C2c3cccc(-c4ccnc(F)c4)c3CCN12 [Example 99g]
4 = COCCc1cn(C2=NCC(=O)N3CCc4c(cccc4-c4nccs4)C3=C2)cn1 [Example 88h]
Hello, I need these entries ordered by IC50, highest reading first. Thanks! In your reply, arrange the labels in the requested order. 2, 3, 4, 1
(2: 5200 nM, 3: 220 nM, 4: 46 nM, 1: 18 nM)

###

- measured.target: human mGluR5a receptors (Homo sapiens (Human))
- assay.details: inhibition of glutamate-induced elevation of intracellular calcium in L(tk-) cells expressing human mGluR5a
- test.parameters: glutamate-induced intracellular calcium elevation, L(tk-) cells expressing human mGluR5a; read-out: mGluR5 IC50
attribute.measured: IC50 (nM)

The following molecules have reported results that may help.
INSERT INTO results (molecule, attribute_measured, measure_unit, measurement) VALUES
  ('O=C1CN=C(n2cnc(C3CC3)n2)C=C2c3cccc(-c4cccc(F)n4)c3CCN12 [Example 134]', 'IC50', 'nM', 198),
  ('Cc1cn(C2=NCC(=O)N3CCc4c(ccc(F)c4-c4cccnc4F)C3=C2)cn1 [Example 99s]', 'IC50', 'nM', 153);

a = C#Cc1cccc2c1CCN1C(=O)CN=C(c3cccs3)C=C21 [Example 38]
b = CCCc1cccc2c1CCN1C(=O)CN=C(n3cnc(-c4ncco4)c3)C=C21 [Example 88a]
Kindly identify the item with the lower IC50 figure among these two: a and b // return label of chosen record b
(b: 5 nM, a: 50 nM)

###

- measured.target: human mGluR1 (Homo sapiens (Human), UniProt Q13255)
- Sequence (Q13255 19-1194): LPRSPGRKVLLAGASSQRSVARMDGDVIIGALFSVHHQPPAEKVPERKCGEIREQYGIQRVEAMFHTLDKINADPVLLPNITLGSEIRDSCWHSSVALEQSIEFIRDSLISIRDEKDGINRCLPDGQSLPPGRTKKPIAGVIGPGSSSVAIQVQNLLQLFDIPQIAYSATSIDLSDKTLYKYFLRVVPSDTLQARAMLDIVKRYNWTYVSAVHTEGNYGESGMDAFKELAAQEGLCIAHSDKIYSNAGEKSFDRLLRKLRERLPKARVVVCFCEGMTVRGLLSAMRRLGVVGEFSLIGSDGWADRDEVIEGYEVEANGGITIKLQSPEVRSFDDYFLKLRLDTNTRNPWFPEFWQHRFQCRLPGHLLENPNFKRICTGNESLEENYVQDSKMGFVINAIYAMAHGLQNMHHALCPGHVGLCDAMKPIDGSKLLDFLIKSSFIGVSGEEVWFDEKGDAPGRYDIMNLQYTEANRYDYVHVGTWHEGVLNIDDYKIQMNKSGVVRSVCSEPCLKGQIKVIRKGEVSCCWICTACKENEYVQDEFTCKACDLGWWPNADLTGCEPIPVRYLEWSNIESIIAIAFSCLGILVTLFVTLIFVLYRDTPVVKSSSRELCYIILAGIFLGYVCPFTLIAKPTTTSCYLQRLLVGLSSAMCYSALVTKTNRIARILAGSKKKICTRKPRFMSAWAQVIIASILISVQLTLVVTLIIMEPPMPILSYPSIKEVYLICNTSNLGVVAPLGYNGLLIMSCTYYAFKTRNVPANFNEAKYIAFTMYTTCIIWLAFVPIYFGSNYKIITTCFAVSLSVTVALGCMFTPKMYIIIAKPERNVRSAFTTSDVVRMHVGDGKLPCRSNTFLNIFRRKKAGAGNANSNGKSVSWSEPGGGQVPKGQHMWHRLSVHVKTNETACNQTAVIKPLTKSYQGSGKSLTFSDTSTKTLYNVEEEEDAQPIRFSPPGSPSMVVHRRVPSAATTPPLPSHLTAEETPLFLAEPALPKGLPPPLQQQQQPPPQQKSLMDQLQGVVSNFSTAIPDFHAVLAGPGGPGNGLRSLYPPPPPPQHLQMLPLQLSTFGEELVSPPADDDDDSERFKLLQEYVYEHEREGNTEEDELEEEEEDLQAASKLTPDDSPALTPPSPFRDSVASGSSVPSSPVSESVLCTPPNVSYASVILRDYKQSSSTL
- assay.details: mGluR1 antagonism, L-glutamate induced intracellular calcium increase (FLIPR) in CHO cells stably expressing human mGluR1
- test.parameters: L-glutamate induced intracellular calcium, CHO cells expressing human mGluR1, FLIPR
attribute.measured: IC50 (µM)

Examples from the recorded data:
INSERT INTO results (compound, attribute_measured, measurement) VALUES
  ('COCc1cn(C2=NCC(=O)N3CCc4c(cccc4C4CCC4)C3=C2)cn1', 'IC50', 0.22),
  ('O=C1CN=C(n2cnc(C3CCC3)c2)C=C2c3cccc(-c4cccnc4F)c3CCN12', 'IC50', 2.4),
  ('Cn1ccc(C2=NCC(=O)N3CCc4c(I)cccc4C3=C2)n1', 'IC50', 1.3);

A = Cc1cn(C2=NCC(=O)N3CCc4c(I)cccc4C3=C2)c(C)n1
B = COc1cccc(C2=NCC(=O)N3CCc4c(ccc(Cl)c4OC)C3=C2)c1
C = CCc1cn(C2=NCC(=O)N3CCc4c(cccc4-c4ccc(F)cc4)C3=C2)cn1
D = CO[C@H](C)c1cn(C2=NCC(=O)N3CCc4c(ccc(F)c4C4CC4)C3=C2)cn1 [Example 99n]
E = COc1cccc2c1CCN1C(=O)CN=C(c3cccc(C(F)(F)F)c3)C=C21
Please order the records by their reported IC50, lowest number first. Hello, could you send the labels back in the order asked? Thank you. B, A, D, E, C
